System: AGS cells (KRAS G12D)
ASSAY TEXT: Cell viability assay, G12D
Format: cell-based, human
ASSAY CONTEXT: Homo sapiens, 72 hrs, Cell Counting Kit-8
Known IC50 of a selection of compounds
Give the value, in units of µM, as a plain number.

CO[C@@H](C)c1ncc(N2CCN(C)CC2)cc1-c1c2c3cc(c(F)cc3n1CC(F)(F)F)-c1csc(n1)C[C@H](NC(=O)[C@H](C(C)C)N(C)C(=O)[C@H]1C[C@@H](C#Cc3nccc(C(F)(F)F)n3)C1)C(=O)N1CCC[C@H](N1)C(=O)OCC(C)(C)C2 (atropisomer, axis not shown; (M)) [Example 16]
0.743

Would you kindly look at the next entry?
So for CO[C@@H](C)c1ncc(N2CCN(C)CC2)cc1-c1c2c3cc(c(F)cc3n1CC(F)(F)F)-c1csc(n1)C[C@H](NC(=O)[C@H](C(C)C)N(C)C(=O)c1ccc(C#CC(F)(F)F)cc1)C(=O)N1CCC[C@H](N1)C(=O)OCC(C)(C)C2 (atropisomer, axis not shown; (M)) [Example 4] , the logged IC50 turned out to be 0.781
